- test.target: T1, Human LAG3-His: [VEGF leader]-LAG3_H-[His9G] (human, UniProt P18627 23-450)
- T1 construct: also called human LAG3-His tagged recombinant protein; hLAG3-His
- T1 sequence: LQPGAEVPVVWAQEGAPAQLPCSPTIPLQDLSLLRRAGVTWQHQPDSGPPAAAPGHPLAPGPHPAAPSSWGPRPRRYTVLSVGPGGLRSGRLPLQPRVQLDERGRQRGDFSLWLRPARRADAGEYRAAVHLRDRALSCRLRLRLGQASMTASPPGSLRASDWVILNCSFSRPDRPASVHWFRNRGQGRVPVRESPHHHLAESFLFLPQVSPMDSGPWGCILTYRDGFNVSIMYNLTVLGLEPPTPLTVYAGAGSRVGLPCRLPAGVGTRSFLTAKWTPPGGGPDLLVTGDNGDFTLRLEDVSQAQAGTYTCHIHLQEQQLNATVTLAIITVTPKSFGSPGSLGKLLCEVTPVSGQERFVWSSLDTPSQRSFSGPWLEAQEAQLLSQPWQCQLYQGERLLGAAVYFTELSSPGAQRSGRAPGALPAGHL
- test.details: SPR (Biacore T200), antibody captured on goat anti-mouse Fc, human LAG3-His as analyte, 1:1 Langmuir fit
In this section we review reported kon values for a set of binders.
measured.attribute: kon (M⁻¹ s⁻¹)

binder | measured.attribute | observed.result
mouse anti-human LAG3 antibody LB148.19E8.G1.1A1 (antibody, mouse IgG2b, V domains shown, also called Lag3 clone 19E8) VH: QIRLQQSGPELVKPGASVKISCKASGSSFTDYYINWVKQKPGQGLEWIGWIYPGSGNSIYNENFKAKATLTVDTSSSTAYMHLSSLTSEDTAVYFCAREADYDDALDYWGQGTSVTVSS VL: HILLTQSPAILSVSPGERVSFSCRASQSIGTSIHWYQQRTNGSPRLLIKYASESISGIPSRFSGSGSGTDFTLSINSVESEDIADYYCQQSNSWPTYTFGGGTKLEIK | kon | 7.43e+06
mouse anti-human LAG3 antibody LB148.11C9.1C1 (antibody, mouse IgG1, V domains shown, also called Lag3 clone 11C9) VH: QVQLQQPGAELVMPGASAKMSCKASGYTLTDYWMHWVKQRPGQGLEWIGAIDISDSYSSYNQKFKGKATLTVDESSSTAYMQLTSLTSEDSAVYYCARSPFYNSRGGNYFDYWGQGTTLTVSS VL: DIQMTQTTSSLSASLGDRVTISCRASQDISNYLNWYQQKPDGTVKLLIYYTSRLHSGVPSRFSGSGSGTDYSLTISNLEQEDIATYFCQQGDTLPPWTFGGGTKLEIK | kon | 1.31e+06
mouse anti-human LAG3 antibody LB145.22D2.E1.1D1 (antibody, mouse IgG2a, V domains shown, also called Lag3 clone 22D2; LB145.22D2.E1.D1) VH: EVLLLQSGPELVKPGTSVKIPCKASGYTFTDYNVDWVKQRHGKGLEWIGDINPNNGGTIYSQKFKGKATLTVDKSSSTAFMELRSLTSEDTAVYFCARNYRWFGAMDHWGQGTSVTVSS VL: DIVLTQSPASLAVSPGQRATISCKASQSLDYEGDSDMNWYQQKPGQPPRLLISGASNLESGIPARFSGSGSGTDFTVNIHPVEEEDAATYYCQQSTEDPRTFGGGTKLEIK | kon | 1.39e+07
mouse anti-human LAG3 antibody LB148.4A10.1H1 (antibody, mouse IgG2a, V domains shown, also called Lag3 clone 4A10) VH: EVQLLQSGAELVRSGASVKLSCTASGFNIEDYYMHWMKQRPEQGLEWIGWIDPVNGDTEYAPKFQGKATMTADTSSNTAYLHLNSLTSEDTAVYYCNFYDGYLFAFWGQGTLVTVSA VL: DIVLTQAAPSVPVTPGESVSISCRSSKSLLHSDGNTYLYWLLQRPGQSPQLLIYRMSNLASGVPDRFSGSGSGTVFTLRISRLEAEDVGIYYCMQHLEYPFTFGGGTKLEIK | kon | 1.25e+06
